Sourced from paper PMC6301270

System: HeLa cells
Experiment: HeLa cell assay (cytotoxicity)
Assay type: cell-based
Settings: Homo sapiens; Table 2; HeLa cells, 48 hours, resazurin; read-out: HeLa IC50
pIC50: −log10 of the molar value.
ENDPOINT LABEL: pIC50

Below are worked cases with known answers.
> print(dat)
                                   compound  endpoint.label  obs.value
1  CS(=O)(=O)c1ccc(C(=O)N(CC2CCCO2)c2nc3ccccc3s2)cc1[N+](=O)[O-] (stereo not shown) [Compound 61]           pIC50     < 4.60
2  c1ccc(-c2nc(NC3CCCCC3)cc(C3CC3)n2)nc1 [Compound 35, C1CCC(CC1)Nc2cc(nc(n2)c3ccccn3)C4CC4]           pIC50     < 4.60
3  CCCn1c(NC(=O)c2ccc3ccccc3n2)nc2ccccc21 [Compound 59, CCCn1c(NC(=O)c2ccc3ccccc3n2)nc4ccccc14]           pIC50     < 4.60

Query: Entry CC(C)n1nc(-c2cc3c(Cl)cccc3[nH]2)c2c(N)ncnc21 [Compound 50] needs its pIC50 filled in; supply it.
Reply: < 4.60
